Species on record: Homo sapiens
protocol notes: Selectivity for integrin alpha2bbeta3 receptor over integrin alphavbeta3 receptor
Square brackets hold non-standard residues; d marks the D form. Peptide text beside a SMILES is read from it.
Ratio IC50 values, listed per item

Here is how some molecules turned out for Ratio IC50.
CC(C)C[C@@H]1NC(=O)[C@@H](Cc2ccccc2)NC(=O)[C@H](CC(=O)O)NC(=O)CNC(=O)[C@H](CCCNC(=N)N)NC(=O)CNC1=O (cyclo(GRGD[dF]L))
0.5
CC(C)C[C@@H]1NC(=O)[C@@H](Cc2ccccc2)NC(=O)[C@H](CC(=O)O)NC(=O)CNC(=O)[C@H](CCCNC(=N)N)N(C)C(=O)CNC1=O
64
CC(C)C[C@H]1C(=O)NCC(=O)N[C@@H](CCCNC(=N)N)C(=O)NCC(=O)N[C@@H](CC(=O)O)C(=O)N[C@H](Cc2ccccc2)C(=O)N1C
0.2
CC(C)C[C@@H]1NC(=O)[C@@H](Cc2ccccc2)N(C)C(=O)[C@H](CC(=O)O)NC(=O)CNC(=O)[C@H](CCCNC(=N)N)NC(=O)CNC1=O
0.2
CC(C)C[C@H]1C(=O)NCC(=O)N[C@@H](CCCNC(=N)N)C(=O)NCC(=O)N[C@@H](CC(=O)O)C(=O)N(C)[C@H](Cc2ccccc2)C(=O)N1C
2
CC(C)C[C@H]1C(=O)NCC(=O)N(C)[C@@H](CCCNC(=N)N)C(=O)NCC(=O)N[C@@H](CC(=O)O)C(=O)N(C)[C@H](Cc2ccccc2)C(=O)N1C
406
CC(C)C[C@@H]1NC(=O)[C@@H](Cc2ccccc2)N(C)C(=O)[C@H](CC(=O)O)NC(=O)CNC(=O)[C@H](CCCNC(=N)N)N(C)C(=O)CNC1=O
16

Would you kindly look at the next entry?
**Q:** Hello, please tell me recorded Ratio IC50 for this one: `CC(C)C[C@H]1C(=O)NCC(=O)N(C)[C@@H](CCCNC(=N)N)C(=O)NCC(=O)N[C@@H](CC(=O)O)C(=O)N[C@H](Cc2ccccc2)C(=O)N1C`
**A:** 86

====

protocol notes: Permeability across human Caco-2 cell monolayer
Type: ADME, cell-based
Square brackets hold non-standard residues; d marks the D form. Peptide text beside a SMILES is read from it.
Papp values, listed per item
The figure you give is taken to be in ×10⁻⁶ cm/s; do not add the unit.

Here is how some compounds turned out for Papp.
CC(C)C[C@@H]1NC(=O)[C@@H](Cc2ccccc2)NC(=O)[C@H](CC(=O)O)NC(=O)CNC(=O)[C@H](CCCNC(=N)N)NC(=O)CNC1=O (cyclo(GRGD[dF]L))
0.03
OC[C@@H](O)[C@@H](O)[C@H](O)[C@H](O)CO
0.9

Would you kindly look at the next entry?
**Q:** Hello, please tell me recorded Papp for this one: `CC(C)C[C@H]1C(=O)NCC(=O)N[C@@H](CCCN=C(N)N)C(=O)NCC(=O)N[C@@H](CC(=O)O)C(=O)N(C)[C@H](Cc2ccccc2)C(=O)N1C`
**A:** 0.03

====

measurement target: Integrin alpha-IIb/beta-3 (Homo sapiens, UniProt P05106+P08514)
Sequence (P08514 32-887 limits assumed, one chain of several): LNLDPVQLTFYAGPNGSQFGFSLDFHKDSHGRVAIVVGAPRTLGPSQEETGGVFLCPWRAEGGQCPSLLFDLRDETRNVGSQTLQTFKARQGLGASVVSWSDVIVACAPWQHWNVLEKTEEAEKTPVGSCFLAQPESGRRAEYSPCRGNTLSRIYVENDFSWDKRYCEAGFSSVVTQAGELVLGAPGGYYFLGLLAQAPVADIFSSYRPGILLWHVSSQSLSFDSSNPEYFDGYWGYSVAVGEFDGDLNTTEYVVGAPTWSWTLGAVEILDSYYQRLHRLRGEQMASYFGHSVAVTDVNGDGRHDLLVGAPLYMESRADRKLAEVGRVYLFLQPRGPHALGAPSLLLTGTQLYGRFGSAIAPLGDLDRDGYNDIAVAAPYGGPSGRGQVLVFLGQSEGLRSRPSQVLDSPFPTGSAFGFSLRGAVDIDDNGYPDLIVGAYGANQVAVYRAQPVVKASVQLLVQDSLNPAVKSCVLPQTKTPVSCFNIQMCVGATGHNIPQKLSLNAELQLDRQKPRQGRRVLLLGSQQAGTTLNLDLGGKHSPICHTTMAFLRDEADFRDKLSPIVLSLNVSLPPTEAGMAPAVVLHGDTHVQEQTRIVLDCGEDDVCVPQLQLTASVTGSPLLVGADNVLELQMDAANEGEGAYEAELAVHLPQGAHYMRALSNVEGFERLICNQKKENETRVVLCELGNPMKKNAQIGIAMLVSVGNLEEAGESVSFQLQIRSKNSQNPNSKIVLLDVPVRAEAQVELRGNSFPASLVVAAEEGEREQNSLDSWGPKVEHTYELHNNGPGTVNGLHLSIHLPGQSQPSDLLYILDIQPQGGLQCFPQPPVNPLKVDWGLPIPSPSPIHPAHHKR
Sequence (P08514 891-1039 limits assumed, one chain of several): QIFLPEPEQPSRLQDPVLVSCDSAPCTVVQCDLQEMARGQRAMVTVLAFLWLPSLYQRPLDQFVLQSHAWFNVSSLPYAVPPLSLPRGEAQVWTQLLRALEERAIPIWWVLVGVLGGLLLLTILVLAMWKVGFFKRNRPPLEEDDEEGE
protocol notes: Binding affinity to integrin alpha-2b-beta-3 receptor by solid phase binding assay
Square brackets hold non-standard residues; d marks the D form. Peptide text beside a SMILES is read from it.
observable: pIC50
Please note pIC50 is a logarithmic value: minus log10 of concentration in mol/L. Answer with that number alone.

**Q:** Report value only: pIC50, Integrin alpha-IIb/beta-3 (Homo sapiens, UniProt P05106+P08514), CC(C)C[C@@H]1NC(=O)[C@@H](Cc2ccccc2)NC(=O)[C@H](CC(=O)O)NC(=O)CNC(=O)[C@H](CCCNC(=N)N)NC(=O)CNC1=O (cyclo(GRGD[dF]L))
**A:** 6.71

====

measurement target: Integrin alpha-5/beta-1 (Homo sapiens, UniProt P05556+P08648)
Sequence (P05556 21-798 limits assumed): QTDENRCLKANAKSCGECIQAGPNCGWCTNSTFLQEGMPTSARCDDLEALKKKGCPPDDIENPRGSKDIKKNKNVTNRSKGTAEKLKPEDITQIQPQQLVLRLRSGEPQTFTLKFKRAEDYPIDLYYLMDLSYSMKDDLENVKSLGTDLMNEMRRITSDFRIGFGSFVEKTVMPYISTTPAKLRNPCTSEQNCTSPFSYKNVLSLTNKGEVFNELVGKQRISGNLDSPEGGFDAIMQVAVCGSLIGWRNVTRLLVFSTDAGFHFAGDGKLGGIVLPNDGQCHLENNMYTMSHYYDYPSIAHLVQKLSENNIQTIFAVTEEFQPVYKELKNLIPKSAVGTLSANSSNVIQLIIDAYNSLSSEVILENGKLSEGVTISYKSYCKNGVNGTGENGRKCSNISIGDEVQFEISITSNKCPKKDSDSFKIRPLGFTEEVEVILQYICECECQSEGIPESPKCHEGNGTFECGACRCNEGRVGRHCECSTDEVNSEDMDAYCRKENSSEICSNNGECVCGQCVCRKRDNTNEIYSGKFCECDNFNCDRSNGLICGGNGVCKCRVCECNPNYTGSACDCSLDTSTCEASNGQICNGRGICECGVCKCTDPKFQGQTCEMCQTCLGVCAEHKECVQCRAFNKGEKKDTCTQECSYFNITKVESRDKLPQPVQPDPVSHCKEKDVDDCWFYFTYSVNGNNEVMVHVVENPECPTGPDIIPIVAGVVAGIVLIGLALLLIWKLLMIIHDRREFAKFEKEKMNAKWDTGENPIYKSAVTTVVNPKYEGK
Sequence (P08648 42-894 limits assumed): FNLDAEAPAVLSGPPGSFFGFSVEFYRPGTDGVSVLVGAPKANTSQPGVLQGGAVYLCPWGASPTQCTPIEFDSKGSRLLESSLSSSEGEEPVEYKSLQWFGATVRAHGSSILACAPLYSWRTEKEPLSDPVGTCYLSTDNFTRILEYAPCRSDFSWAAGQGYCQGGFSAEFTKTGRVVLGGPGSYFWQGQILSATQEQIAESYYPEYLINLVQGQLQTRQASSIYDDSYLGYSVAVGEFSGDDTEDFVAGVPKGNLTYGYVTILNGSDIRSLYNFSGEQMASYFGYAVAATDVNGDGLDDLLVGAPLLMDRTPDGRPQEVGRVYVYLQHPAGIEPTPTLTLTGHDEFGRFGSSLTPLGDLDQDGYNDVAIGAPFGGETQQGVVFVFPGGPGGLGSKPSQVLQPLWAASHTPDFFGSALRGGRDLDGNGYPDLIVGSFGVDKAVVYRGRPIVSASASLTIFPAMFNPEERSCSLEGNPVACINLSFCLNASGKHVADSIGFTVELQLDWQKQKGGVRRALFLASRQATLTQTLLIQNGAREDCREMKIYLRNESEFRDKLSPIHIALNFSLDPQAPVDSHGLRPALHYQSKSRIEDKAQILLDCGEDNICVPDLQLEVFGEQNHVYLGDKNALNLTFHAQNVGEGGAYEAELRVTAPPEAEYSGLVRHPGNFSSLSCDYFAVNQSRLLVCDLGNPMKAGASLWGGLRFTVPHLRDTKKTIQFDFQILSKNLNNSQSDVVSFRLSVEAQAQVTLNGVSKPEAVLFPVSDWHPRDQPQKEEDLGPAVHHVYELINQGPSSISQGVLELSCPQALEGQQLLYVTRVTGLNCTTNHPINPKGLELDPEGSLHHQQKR
Sequence (P08648 895-1049 limits assumed): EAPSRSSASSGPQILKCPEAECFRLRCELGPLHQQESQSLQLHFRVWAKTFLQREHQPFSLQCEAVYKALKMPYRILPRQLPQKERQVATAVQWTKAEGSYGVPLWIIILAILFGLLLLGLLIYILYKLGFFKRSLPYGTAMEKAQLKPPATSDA
protocol notes: Binding affinity to integrin alpha-5-beta-1 receptor by solid phase binding assay
pIC50: −log10 of the molar value. Square brackets hold non-standard residues; d marks the D form. Peptide text beside a SMILES is read from it.
Respond with 1 (yes) for pIC50 values of 5 and above, 0 (no) for values below.

CC(C)C[C@H]1C(=O)NCC(=O)N[C@@H](CCCN=C(N)N)C(=O)NCC(=O)N[C@@H](CC(=O)O)C(=O)N(C)[C@H](Cc2ccccc2)C(=O)N1C
0 (no)

**Q:** Does the compound `CC(C)C[C@@H]1NC(=O)[C@@H](Cc2ccccc2)NC(=O)[C@H](CC(=O)O)NC(=O)CNC(=O)[C@H](CCCN=C(N)N)N(C)C(=O)CNC1=O` have recorded pIC50 that is 5 or more?
**A:** 1 (yes)

**Q:** Does the compound `CC(C)C[C@H]1C(=O)NCC(=O)N(C)[C@@H](CCCN=C(N)N)C(=O)NCC(=O)N[C@@H](CC(=O)O)C(=O)N(C)[C@H](Cc2ccccc2)C(=O)N1C` have recorded pIC50 that is 5 or more?
**A:** 0 (no)

**Q:** Does the compound `CC(C)C[C@H]1C(=O)NCC(=O)N(C)[C@@H](CCCNC(=N)N)C(=O)NCC(=O)N[C@@H](CC(=O)O)C(=O)N[C@H](Cc2ccccc2)C(=O)N1C` have recorded pIC50 that is 5 or more?
**A:** 0 (no)

**Q:** Does the compound `CC(C)C[C@H]1C(=O)NCC(=O)N[C@@H](CCCN=C(N)N)C(=O)NCC(=O)N[C@@H](CC(=O)O)C(=O)N[C@H](Cc2ccccc2)C(=O)N1C` have recorded pIC50 that is 5 or more?
**A:** 1 (yes)

**Q:** Does the compound `CC(C)C[C@@H]1NC(=O)[C@@H](Cc2ccccc2)N(C)C(=O)[C@H](CC(=O)O)NC(=O)CNC(=O)[C@H](CCCN=C(N)N)NC(=O)CNC1=O` have recorded pIC50 that is 5 or more?
**A:** 1 (yes)

**Q:** Does the compound CC(C)C[C@@H]1NC(=O)[C@@H](Cc2ccccc2)NC(=O)[C@H](CC(=O)O)NC(=O)CNC(=O)[C@H](CCCNC(=N)N)NC(=O)CNC1=O (cyclo(GRGD[dF]L)) have recorded pIC50 that is 5 or more?
**A:** 1 (yes)

**Q:** Does the compound `CC(C)C[C@@H]1NC(=O)[C@@H](Cc2ccccc2)N(C)C(=O)[C@H](CC(=O)O)NC(=O)CNC(=O)[C@H](CCCNC(=N)N)N(C)C(=O)CNC1=O` have recorded pIC50 that is 5 or more?
**A:** 0 (no)

====

measurement target: Integrin alpha-V/beta-3 (Homo sapiens, UniProt P05106+P06756)
Sequence (P05106 27-788 limits assumed): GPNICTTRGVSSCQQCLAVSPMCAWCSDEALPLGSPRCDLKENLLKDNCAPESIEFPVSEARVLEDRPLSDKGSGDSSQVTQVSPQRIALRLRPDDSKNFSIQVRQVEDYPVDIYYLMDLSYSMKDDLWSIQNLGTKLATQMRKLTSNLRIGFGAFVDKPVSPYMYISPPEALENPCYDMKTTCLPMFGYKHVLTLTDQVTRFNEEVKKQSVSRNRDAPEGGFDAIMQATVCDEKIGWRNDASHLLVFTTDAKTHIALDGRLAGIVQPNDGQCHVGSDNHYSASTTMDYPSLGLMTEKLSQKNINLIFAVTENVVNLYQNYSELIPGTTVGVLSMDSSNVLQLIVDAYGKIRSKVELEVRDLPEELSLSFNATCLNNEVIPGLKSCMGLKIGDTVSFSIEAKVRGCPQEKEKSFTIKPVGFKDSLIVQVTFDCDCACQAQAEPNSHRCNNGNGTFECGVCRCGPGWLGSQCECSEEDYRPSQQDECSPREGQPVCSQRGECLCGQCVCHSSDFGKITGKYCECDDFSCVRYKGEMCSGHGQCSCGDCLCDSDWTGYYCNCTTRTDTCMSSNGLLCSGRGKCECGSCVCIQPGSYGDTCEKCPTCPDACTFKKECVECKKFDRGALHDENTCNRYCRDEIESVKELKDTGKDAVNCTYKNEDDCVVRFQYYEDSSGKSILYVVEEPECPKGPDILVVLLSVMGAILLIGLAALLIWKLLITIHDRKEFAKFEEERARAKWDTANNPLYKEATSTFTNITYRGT
Sequence (P06756 31-889 limits assumed): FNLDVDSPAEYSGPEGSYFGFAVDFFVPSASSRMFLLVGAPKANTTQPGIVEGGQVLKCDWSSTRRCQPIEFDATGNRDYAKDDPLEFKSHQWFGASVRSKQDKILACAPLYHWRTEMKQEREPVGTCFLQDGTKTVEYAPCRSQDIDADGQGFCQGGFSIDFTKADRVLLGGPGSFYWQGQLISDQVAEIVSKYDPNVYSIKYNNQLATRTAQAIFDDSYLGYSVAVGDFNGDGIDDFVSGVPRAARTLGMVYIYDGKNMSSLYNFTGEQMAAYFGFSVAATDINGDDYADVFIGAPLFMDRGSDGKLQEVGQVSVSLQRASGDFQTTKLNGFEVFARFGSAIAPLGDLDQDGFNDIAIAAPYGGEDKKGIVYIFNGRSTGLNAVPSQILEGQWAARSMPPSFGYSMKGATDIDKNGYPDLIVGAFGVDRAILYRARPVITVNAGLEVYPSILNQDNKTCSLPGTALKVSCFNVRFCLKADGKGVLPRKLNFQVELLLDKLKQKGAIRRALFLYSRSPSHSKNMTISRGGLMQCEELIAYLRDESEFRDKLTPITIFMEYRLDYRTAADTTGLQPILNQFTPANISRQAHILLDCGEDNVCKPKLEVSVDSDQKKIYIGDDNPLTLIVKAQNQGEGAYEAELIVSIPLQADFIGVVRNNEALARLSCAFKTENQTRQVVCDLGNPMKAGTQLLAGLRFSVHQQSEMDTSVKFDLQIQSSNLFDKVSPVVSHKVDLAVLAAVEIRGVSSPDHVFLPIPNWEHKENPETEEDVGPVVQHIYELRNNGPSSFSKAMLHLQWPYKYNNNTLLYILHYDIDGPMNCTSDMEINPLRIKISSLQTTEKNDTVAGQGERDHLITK
Sequence (P06756 891-1048 limits assumed): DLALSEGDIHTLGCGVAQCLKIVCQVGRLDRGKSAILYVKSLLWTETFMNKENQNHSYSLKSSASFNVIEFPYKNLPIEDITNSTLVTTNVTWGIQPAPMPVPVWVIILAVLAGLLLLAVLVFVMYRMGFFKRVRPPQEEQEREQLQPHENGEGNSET
protocol notes: Binding affinity to integrin alpha-v-beta-3 receptor by solid phase binding assay
pIC50: −log10 of the molar value. Square brackets hold non-standard residues; d marks the D form. Peptide text beside a SMILES is read from it.
Respond with Condition met for pIC50 values of 6 and above, Condition not met for values below.

Some solved entries appear below for comparison.
CC(C)C[C@@H]1NC(=O)[C@@H](Cc2ccccc2)N(C)C(=O)[C@H](CC(=O)O)NC(=O)CNC(=O)[C@H](CCCNC(=N)N)N(C)C(=O)CNC1=O
Condition not met
CC(C)C[C@@H]1NC(=O)[C@@H](Cc2ccccc2)NC(=O)[C@H](CC(=O)O)NC(=O)CNC(=O)[C@H](CCCNC(=N)N)NC(=O)CNC1=O (cyclo(GRGD[dF]L))
Condition met
CC(C)C[C@@H]1NC(=O)[C@@H](Cc2ccccc2)N(C)C(=O)[C@H](CC(=O)O)NC(=O)CNC(=O)[C@H](CCCN=C(N)N)NC(=O)CNC1=O
Condition met

**Q:** Does the compound `CC(C)C[C@H]1C(=O)NCC(=O)N[C@@H](CCCN=C(N)N)C(=O)NCC(=O)N[C@@H](CC(=O)O)C(=O)N[C@H](Cc2ccccc2)C(=O)N1C` have recorded pIC50 that is 6 or more?
**A:** Condition met

**Q:** Does the compound `CC(C)C[C@H]1C(=O)NCC(=O)N(C)[C@@H](CCCN=C(N)N)C(=O)NCC(=O)N[C@@H](CC(=O)O)C(=O)N(C)[C@H](Cc2ccccc2)C(=O)N1C` have recorded pIC50 that is 6 or more?
**A:** Condition not met

====

measurement target: Integrin alpha-IIb/beta-3 (Homo sapiens, UniProt P05106+P08514)
protocol notes: Binding affinity to integrin alpha-2b-beta-3 receptor by solid phase binding assay
pIC50 values, listed per item
Please note pIC50 is a logarithmic value: minus log10 of concentration in mol/L. Answer with that number alone.

Here is how some compounds turned out for pIC50.
CC(C)C[C@H]1C(=O)NCC(=O)N(C)[C@@H](CCCNC(=N)N)C(=O)NCC(=O)N[C@@H](CC(=O)O)C(=O)N[C@H](Cc2ccccc2)C(=O)N1C
7.82
CC(C)C[C@H]1C(=O)NCC(=O)N[C@@H](CCCN=C(N)N)C(=O)NCC(=O)N[C@@H](CC(=O)O)C(=O)N[C@H](Cc2ccccc2)C(=O)N1C
6.25
CC(C)C[C@@H]1NC(=O)[C@@H](Cc2ccccc2)NC(=O)[C@H](CC(=O)O)NC(=O)CNC(=O)[C@H](CCCN=C(N)N)N(C)C(=O)CNC1=O
7.92
CC(C)C[C@@H]1NC(=O)[C@@H](Cc2ccccc2)N(C)C(=O)[C@H](CC(=O)O)NC(=O)CNC(=O)[C@H](CCCN=C(N)N)NC(=O)CNC1=O
5.70
CC(C)C[C@@H]1NC(=O)[C@@H](Cc2ccccc2)N(C)C(=O)[C@H](CC(=O)O)NC(=O)CNC(=O)[C@H](CCCNC(=N)N)N(C)C(=O)CNC1=O
6.78

**Q:** Hello, please tell me recorded pIC50 for this one: `CC(C)C[C@H]1C(=O)NCC(=O)N[C@@H](CCCN=C(N)N)C(=O)NCC(=O)N[C@@H](CC(=O)O)C(=O)N(C)[C@H](Cc2ccccc2)C(=O)N1C`
**A:** 6.21

**Q:** Hello, please tell me recorded pIC50 for this one: `CC(C)C[C@H]1C(=O)NCC(=O)N(C)[C@@H](CCCN=C(N)N)C(=O)NCC(=O)N[C@@H](CC(=O)O)C(=O)N(C)[C@H](Cc2ccccc2)C(=O)N1C`
**A:** 7.52
